# System: RSV A2
# Assay text: In vitro probenecid inhibition assay, RSV A2 (plaque assay)
# Type: cell-based, respiratory syncytial virus (RSV)
# Reported conditions: human respiratory syncytial virus, Vero C1008; Prophylaxis (24 h before infection); Vero E6 cells
Reported endpoint: IC50

{"Compound": "CCCN(CCC)S(=O)(=O)c1ccc(C(=O)O)cc1 [Probenecid]", "Reported result": "70 nM"}

----------
# Tested on: Measles virus
# Assay text: Measles virus syncytia immunostaining
# Type: cell-based
# Reported conditions: Measles morbillivirus; probenecid dilution assay; FIG. 14A; read-out: IC50 (average syncytia per well)

{"Molecule": "CCCN(CCC)S(=O)(=O)c1ccc(C(=O)O)cc1 [Probenecid]", "IC50 [pM]": 800}
